Entry source: patent US10112926B2

# IC50 annotations
# MEASURED_TARGET: UniProtKB Q8NEB9
# Sequence (Q8NEB9 whole entry): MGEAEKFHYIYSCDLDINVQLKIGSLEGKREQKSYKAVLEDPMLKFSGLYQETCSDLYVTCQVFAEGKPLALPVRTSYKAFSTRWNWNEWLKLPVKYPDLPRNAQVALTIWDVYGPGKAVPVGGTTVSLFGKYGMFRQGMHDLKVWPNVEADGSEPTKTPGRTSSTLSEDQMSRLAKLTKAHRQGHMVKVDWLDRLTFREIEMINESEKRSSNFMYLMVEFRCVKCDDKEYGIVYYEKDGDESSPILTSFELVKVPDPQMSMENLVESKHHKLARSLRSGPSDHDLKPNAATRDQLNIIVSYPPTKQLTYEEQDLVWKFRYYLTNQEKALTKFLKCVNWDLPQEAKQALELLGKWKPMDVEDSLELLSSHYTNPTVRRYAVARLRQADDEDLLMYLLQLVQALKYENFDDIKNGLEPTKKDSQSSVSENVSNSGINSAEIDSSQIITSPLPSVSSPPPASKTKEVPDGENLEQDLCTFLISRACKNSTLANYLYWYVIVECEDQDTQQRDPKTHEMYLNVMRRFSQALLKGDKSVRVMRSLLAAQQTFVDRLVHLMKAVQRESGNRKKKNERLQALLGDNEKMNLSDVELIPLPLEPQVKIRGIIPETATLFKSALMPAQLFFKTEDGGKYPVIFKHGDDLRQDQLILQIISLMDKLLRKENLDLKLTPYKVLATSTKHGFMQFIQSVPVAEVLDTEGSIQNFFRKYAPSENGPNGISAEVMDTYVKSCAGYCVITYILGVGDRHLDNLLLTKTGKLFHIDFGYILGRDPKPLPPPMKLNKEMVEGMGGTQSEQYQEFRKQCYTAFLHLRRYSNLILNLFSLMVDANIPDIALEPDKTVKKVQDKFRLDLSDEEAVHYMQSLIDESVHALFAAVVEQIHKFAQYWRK
# STATED_CONDITIONS: read-out: Assay C VPS34 IC50
Counter-ions that a name gives are not always drawn.

{"MOLECULE": "Cc1ncc(-c2cc(-c3cc(S(=O)(=O)NCC4(CO)COC4)ccc3C)cnc2N)o1", "MEASURED_TARGET": "UniProtKB Q8NEB9", "IC50": "9.5 µM"}
{"MOLECULE": "Cc1cc(-c2cc(-c3cc(S(=O)(=O)NCC4(O)CCCC4)ccc3C)cnc2N)on1", "MEASURED_TARGET": "UniProtKB Q8NEB9", "IC50": "> 10 µM"}
{"MOLECULE": "Cc1cc(-c2cc(-c3cc(S(=O)(=O)N[C@@H](C)C4CC4)ccc3C)cnc2N)on1 [Example 19.13, trifluoroacetic acid salt]", "MEASURED_TARGET": "UniProtKB Q8NEB9", "IC50": "> 10 µM"}
{"MOLECULE": "Cc1ccc(S(=O)(=O)NCC(C)(C)O)cc1-c1cnc(N)c(-c2cnn(C)c2C)c1", "MEASURED_TARGET": "UniProtKB Q8NEB9", "IC50": "> 10 µM"}
{"MOLECULE": "Cc1cc(-c2cc(-c3cc(S(=O)(=O)N4C[C@H](C)[C@@H](O)C4)ccc3C)cnc2N)on1 (relative stereo)", "MEASURED_TARGET": "UniProtKB Q8NEB9", "IC50": "> 10 µM"}
{"MOLECULE": "Cc1cc(-c2cc(-c3cc(S(=O)(=O)NCCC4(O)CCCCC4)ccc3C)cnc2N)on1", "MEASURED_TARGET": "UniProtKB Q8NEB9", "IC50": "> 10 µM"}
{"MOLECULE": "Cc1ncc(-c2cc(-c3cc(S(=O)(=O)N[C@H]4CCC[C@H](O)C4)ccc3C)cnc2N)o1", "MEASURED_TARGET": "UniProtKB Q8NEB9", "IC50": "3.5 µM"}
{"MOLECULE": "Cc1cc(-c2cc(-c3cc(S(=O)(=O)NCC4(O)CCC4)ccc3C)cnc2N)on1", "MEASURED_TARGET": "UniProtKB Q8NEB9", "IC50": "> 10 µM"}
{"MOLECULE": "Cc1ccc(S(=O)(=O)NCC(C)(C)O)cc1-c1cnc(N)c(-n2cncn2)c1 [Example 81, hydrochloride]", "MEASURED_TARGET": "UniProtKB Q8NEB9", "IC50": "> 9.8 µM"}
{"MOLECULE": "Cc1noc(-c2cc(-c3cc(S(=O)(=O)NCC4(O)CCC4)ccc3C)cnc2N)n1", "MEASURED_TARGET": "UniProtKB Q8NEB9", "IC50": "> 10 µM"}
{"MOLECULE": "Cc1cnc(-c2cc(-c3cc(S(=O)(=O)NCCC(C)(C)O)ccc3C)cnc2N)s1", "MEASURED_TARGET": "UniProtKB Q8NEB9", "IC50": "> 10 µM"}
{"MOLECULE": "Cc1cc(-c2cc(-c3cc(S(=O)(=O)NCC4(O)CCOCC4)ccc3C)cnc2N)on1", "MEASURED_TARGET": "UniProtKB Q8NEB9", "IC50": "> 10 µM"}
{"MOLECULE": "Cc1noc(-c2cc(-c3cc(S(=O)(=O)NCCC(C)(C)O)ccc3C)cnc2N)n1 [Example 5, hydrochloride]", "MEASURED_TARGET": "UniProtKB Q8NEB9", "IC50": "> 9.55 µM"}
{"MOLECULE": "Cc1nc(-c2cc(-c3cc(S(=O)(=O)NCC(C)(C)O)ccc3C)cnc2N)cs1", "MEASURED_TARGET": "UniProtKB Q8NEB9", "IC50": "> 10 µM"}
{"MOLECULE": "Cc1ncc(-c2cc(-c3cc(S(=O)(=O)NCC(C)(C)O)ccc3C)cnc2N)o1", "MEASURED_TARGET": "UniProtKB Q8NEB9", "IC50": "> 10 µM"}
{"MOLECULE": "CCc1noc(-c2cc(-c3cc(S(=O)(=O)NCC(C)(C)O)ccc3C)cnc2N)n1 [Example 5.3, hydrochloride]", "MEASURED_TARGET": "UniProtKB Q8NEB9", "IC50": "> 10 µM"}
{"MOLECULE": "Cc1noc(-c2cc(-c3cc(S(=O)(=O)NOCC(C)(C)O)ccc3C)cnc2N)n1 [Example 11, hydrochloride salt]", "MEASURED_TARGET": "UniProtKB Q8NEB9", "IC50": "> 10 µM"}
{"MOLECULE": "Cc1cc(-c2cc(-c3cc(S(=O)(=O)N4CCCC(C)(O)CC4)ccc3C)cnc2N)on1 (stereo not shown) [Example 19.21, trifluoroacetic acid salt]", "MEASURED_TARGET": "UniProtKB Q8NEB9", "IC50": "> 10 µM"}
{"MOLECULE": "Cc1cc(-c2cc(-c3cc(S(=O)(=O)NCCC4(O)CCCC4)ccc3C)cnc2N)on1", "MEASURED_TARGET": "UniProtKB Q8NEB9", "IC50": "> 10 µM"}
{"MOLECULE": "Cc1cnn(-c2cc(-c3cc(S(=O)(=O)NCC(C)(C)O)ccc3C)cnc2N)c1", "MEASURED_TARGET": "UniProtKB Q8NEB9", "IC50": "> 10 µM"}
{"MOLECULE": "Cc1noc(-c2cc(-c3cc(S(=O)(=O)NCC(C)(C)O)ccc3C)cnc2N)n1 [Example 10, hydrochloride salt]", "MEASURED_TARGET": "UniProtKB Q8NEB9", "IC50": "> 9.8 µM"}
{"MOLECULE": "Cc1cc(-c2cc(-c3cc(S(=O)(=O)N4CCOC[C@H]4C)ccc3C)cnc2N)on1 [Example 19.6, trifluoroacetic acid salt]", "MEASURED_TARGET": "UniProtKB Q8NEB9", "IC50": "> 10 µM"}
